B1: tRNA (parent)
chain: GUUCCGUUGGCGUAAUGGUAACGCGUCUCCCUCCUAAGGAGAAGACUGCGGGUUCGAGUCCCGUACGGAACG

- Variants of: B1
- protocol.description: yeast fitness relative to wild type (ratio to wild type); higher = fitter; tRNA-Arg(CCU), competitive growth, 37 C, YPD
This sample holds only a part of the variants without activity.
measured.parameter: yeast fitness

Consider the following illustrative entries.
Look up yeast fitness for this variant: A15G G17A C29G C31U A65G C66G
0.552

// returns reported yeast fitness for input A37G A57G
0.87

Given G44U G52A C55G A69U , state its recorded yeast fitness.
≤ 0.5

// below: yeast fitness requested for another variant
What measured yeast fitness goes with C11A A14G U19G A43C U53A C62A C66U ?
≤ 0.5
